Where these numbers come from: patent US20190300605A1

molecular target: T1, MAdCAM-IgG1 Fc fusion protein (human); assay: SPR BIAcore protocol 2: mAb amine-coupled, MAdCAM-IgG1 Fc injected
T1 construct: Made in CHO-DHFR cells; also called MAdCAM-IgFc
T1 sequence (chain, as listed by the source limits assumed): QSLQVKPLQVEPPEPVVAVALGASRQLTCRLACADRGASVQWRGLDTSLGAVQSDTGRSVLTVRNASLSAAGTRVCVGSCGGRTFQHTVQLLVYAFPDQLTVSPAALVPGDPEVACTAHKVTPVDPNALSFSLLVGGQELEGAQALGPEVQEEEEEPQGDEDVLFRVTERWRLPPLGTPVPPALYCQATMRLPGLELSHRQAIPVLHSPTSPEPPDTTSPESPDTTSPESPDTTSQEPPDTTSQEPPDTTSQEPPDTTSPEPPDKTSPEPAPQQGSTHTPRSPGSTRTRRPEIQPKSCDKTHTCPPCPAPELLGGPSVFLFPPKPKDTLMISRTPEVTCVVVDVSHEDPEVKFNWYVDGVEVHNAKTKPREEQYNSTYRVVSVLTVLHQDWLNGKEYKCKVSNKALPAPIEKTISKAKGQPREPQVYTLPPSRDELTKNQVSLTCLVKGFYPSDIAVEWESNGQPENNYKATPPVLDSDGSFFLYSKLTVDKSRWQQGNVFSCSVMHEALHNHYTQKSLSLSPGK
Parameter: Kd. Scope: all listed entries.
observable: Kd (nM)

binder: anti-MAdCAM monoclonal antibody 7.26.4 (antibody, human IgG2, kappa, V domains shown, human IgG2 kappa from hybridoma 7.26.4) VH: QVQLVQSGAEVKKPGASVKVSCEASGYTFTSYGIDWVRQAPGQGLEWMGWISVYSGNTNYAQKLQGRVTMSTDTSTSTAYMELRSLRSDDTAVYYCAREGSSSSGDYYYGMDVWGQGTTVTVSS VL: DIVMTQTPLSLSVTPGQPASISCKSNQSLLYSDGKTYLFWYLQKPGQPPQLLIYEVSNRFSGVPDRFSGSGSGTDFTLKISRVEAEDVGVYYCMQSIQLPWTFGQGTKVEIKR
readout_qualifier: =
numeric_value: 0.08
//
binder: anti-MAdCAM monoclonal antibody 6.14.2 (antibody, human IgG4, kappa, V domains shown, human IgG4 kappa from hybridoma 6.14.2) VH: EVQLLESGGGLVQPGGSLRLSCAASGLTFNNSAMTWVRQAPGKGLEWVSTTSGSGGTTYYADSVKGRFTISRDSPKNTLYLQMNSLRAEDTAVYYCAARGYSYGTTPYEYWGQGTLVTVSS VL: DIQMTQSPSSLSASVGDRVTITCRASRSISSYLNWYQQKPGKAPKVLIFFVSSLQSGVPSRFSGSGSGTDFTLTISSLQPEDFATYYCQQNYIPPITFGQGTRLEIRR
readout_qualifier: <
numeric_value: 0.01
//
binder: anti-MAdCAM monoclonal antibody 9.8.2 (antibody, human IgG4, kappa, V domains shown, human IgG4 kappa from hybridoma 9.8.2) VH: QVQLVESGGGVVQPGRSLRLSCAASGFTFSSYGMHWVRQAPGKGLEWVAVIWYDGSNEYYADSVKGRFTISRDNSKNTLYLQMNSLRAEDTAVYYCARGAYHFAYWGQGTLVTVSS VL: DIQMTQSPSSLSASVGDRVTITCQASQDISNYLNWYQQKPGKAPKLLIYDASNLETGVPSRFSGSGSGTDFTFTISSLQPEDIATYSCQHSDNLSITFGQGTRLEIKR
readout_qualifier: =
numeric_value: 0.0325
//
binder: anti-MAdCAM monoclonal antibody 6.22.2 (antibody, human IgG4, kappa, V domains shown, human IgG4 kappa from hybridoma 6.22.2) VH: QVQLVESGGGVVQPGRSLRLSCAASGHTFSSDGMHWVRQAPGKGLEWVAIIWYDGSNKYYADSVKGRFTISRDNSKNTLYLQMNSLRAEDTAVYYCARDPGYYYGMDVWGQGTTVTVSS VL: EIVLTQSPDFQSVTPKEKVTITCRASQRIGSSLHWYQQKPDQSPKLLIKYASQSFSGVPSRFSGSGSGTNFTLTINGLEAEDAATYYCHQSGRLPLTFGGGTKVEIKR
readout_qualifier: =
numeric_value: 0.0038
